# assay.explanation: AUC in hepatic portal vein of rat at 5 mg/kg, po
# Type: ADME, organism-based, Plasma
# Design: dose 5 mg/kg, route oral
attribute.measured: AUC (µM·h)

query.smiles: O=C(Nc1ccc(-c2ncccc2C(F)(F)F)cc1)c1ccc(C(F)(F)F)cc1
AUC (µM·h): 0.08

P: O=c1c2ccc(-c3ncccc3C(F)(F)F)cc2[nH]n1-c1ccc(C(F)(F)F)cc1
Q: FC(F)(F)c1ccc(-c2nc3cc(-c4ncccc4C(F)(F)F)ccc3[nH]2)cc1
In: Between P and Q , which one shows the larger AUC value? Mark your answer with the label of the selected entry.
Out: P

====

# assay.explanation: Clearance in rat at 1 mg/kg, iv
# Type: ADME, organism-based
# Set-up: dose 1 mg/kg, route intravenous
# test.conditions: in vivo
attribute.measured: clearance (mL/min/kg)
Numbers only; they are read as mL/min/kg.

In: I am curious: what clearance value has been reported for O=c1c2ccc(-c3ncccc3C(F)(F)F)cc2[nH]n1-c1ccc(C(F)(F)F)cc1 ?
Out: 8

====

# assay.explanation: Systemic AUC in rat at 5 mg/kg, po
# Assay type: ADME, organism-based
# Parameters: dose 5 mg/kg, route oral
# test.conditions: in vivo
attribute.measured: AUC (µM·h)

a: O=C(Nc1ccc(-c2ncccc2C(F)(F)F)cc1)c1ccc(C(F)(F)F)cc1
b: O=c1c2ccc(-c3ncccc3C(F)(F)F)cc2[nH]n1-c1ccc(C(F)(F)F)cc1
c: FC(F)(F)c1ccc(-c2nc3cc(-c4ncccc4C(F)(F)F)ccc3[nH]2)cc1
In: Could you please sort these 3 entries by AUC from high to low? Please, when replying, give the labels in the order that was requested.
Out: b, c, a
(b: 3 µM·h, c: 1.25 µM·h, a: 0.04 µM·h)

====

# assay.explanation: Volume of distribution in rat at 1 mg/kg, iv
# Assay type: ADME, organism-based
# Set-up: dose 1 mg/kg, route intravenous
# test.conditions: in vivo, read-out: Vdss
attribute.measured: Vd (L/kg)
Numbers only; they are read as L/kg.

In: I am curious: what Vd value has been reported for O=c1c2ccc(-c3ncccc3C(F)(F)F)cc2[nH]n1-c1ccc(C(F)(F)F)cc1 ?
Out: 2

====

# system.tested: Transient receptor potential cation channel subfamily V member 1 (Homo sapiens, UniProt Q8NER1)
# Sequence (Q8NER1 whole entry): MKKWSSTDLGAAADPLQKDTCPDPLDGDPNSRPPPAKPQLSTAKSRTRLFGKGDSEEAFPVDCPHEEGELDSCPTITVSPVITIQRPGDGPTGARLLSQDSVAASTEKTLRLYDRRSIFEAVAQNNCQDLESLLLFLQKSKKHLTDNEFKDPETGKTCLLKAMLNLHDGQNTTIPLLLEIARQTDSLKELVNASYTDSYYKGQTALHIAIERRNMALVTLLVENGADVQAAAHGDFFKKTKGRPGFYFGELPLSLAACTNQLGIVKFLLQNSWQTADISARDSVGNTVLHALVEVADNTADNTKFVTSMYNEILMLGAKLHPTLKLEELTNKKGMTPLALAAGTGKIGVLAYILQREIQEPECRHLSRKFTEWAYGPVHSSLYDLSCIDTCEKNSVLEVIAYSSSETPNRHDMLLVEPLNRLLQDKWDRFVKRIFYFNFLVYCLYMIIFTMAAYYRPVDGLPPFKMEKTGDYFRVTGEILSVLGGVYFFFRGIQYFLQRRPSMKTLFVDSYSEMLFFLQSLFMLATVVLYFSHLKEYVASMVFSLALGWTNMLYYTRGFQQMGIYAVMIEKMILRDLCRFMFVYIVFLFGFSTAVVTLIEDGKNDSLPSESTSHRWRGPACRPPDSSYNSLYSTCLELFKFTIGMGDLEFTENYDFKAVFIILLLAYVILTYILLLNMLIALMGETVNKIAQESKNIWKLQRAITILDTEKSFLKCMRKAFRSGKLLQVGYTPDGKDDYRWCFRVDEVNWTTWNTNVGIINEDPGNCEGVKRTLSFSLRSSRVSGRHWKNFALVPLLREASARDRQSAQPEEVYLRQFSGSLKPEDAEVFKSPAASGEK
# assay.explanation: Antagonist activity against capsaicin-induced intracellular calcium ion increase in CHO cells expressing human TRPV1 in FLIPR assay
# Assay type: functional, cell-based
attribute.measured: IC50 (nM)

Consider the worked cases shown below.
molecule: Cc1ccc(C(=O)Nc2ccc(-c3ncccc3C(F)(F)F)cc2)cc1
IC50 / nM: 1100
//
molecule: CC(C)(C)c1ccc(C(=O)Nc2ccc(-c3ncccc3C(F)(F)F)cc2)cc1
IC50 / nM: 470
//
molecule: O=C(Nc1ccc(-c2ncccc2C(F)(F)F)cc1)c1ccccc1
IC50 / nM: 2400
//
molecule: Cc1cccnc1-c1ccc2c(=O)n(-c3ccc(C(F)(F)F)cc3)[nH]c2c1
IC50 / nM: 180
//
molecule: Fc1ccc(-c2nc3cc(-c4ncccc4C(F)(F)F)ccc3[nH]2)cc1
IC50 / nM: 320
//
molecule: Oc1c2c(nn1-c1ccc(C(F)(F)F)cc1)NC(c1ncccc1C(F)(F)F)CC2 (stereo not drawn)
IC50 / nM: 290

A: O=c1c2ccccc2[nH]n1-c1ccc(C(F)(F)F)cc1
B: O=c1c2ccc(-c3ncccc3C(F)(F)F)cc2[nH]n1-c1ccc(C(F)(F)F)cc1
C: Cc1cccnc1-c1ccc(NC(=O)c2ccc(C(F)(F)F)cc2)cc1
D: FC(F)(F)c1ccc(-c2nc3cc(-c4ncccc4C(F)(F)F)ccc3[nH]2)cc1
E: O=C(Nc1ccc(-c2ccccn2)cc1)c1ccc(C(F)(F)F)cc1
In: Task for the reader: rank each entry by its IC50, from the minimum upward. Please, when replying, give the labels in the order that was requested.
Out: D, B, C, A, E

A: O=c1c2cc(-c3ncccc3C(F)(F)F)ccc2[nH]n1-c1ccc(C(F)(F)F)cc1
B: CC(C)(C)c1ccc(-c2nc3cc(-c4ncccc4C(F)(F)F)ccc3[nH]2)cc1
C: O=C(Nc1ccc(-c2ncccc2C(F)(F)F)cc1)c1ccc(C(F)(F)F)cc1
D: Cc1cccnc1-c1ccc(NC(=O)c2cccc(C(F)(F)F)c2)cc1
In: Task for the reader: rank each entry by its IC50, from the minimum upward. Please, when replying, give the labels in the order that was requested.
Out: C, B, A, D
(C: 24 nM, B: 224 nM, A: 370 nM, D: 640 nM)

1: Cc1cccnc1-c1ccc2c(=O)n(-c3ccc(C(F)(F)F)cc3)[nH]c2n1
2: COc1ccccc1-c1ccc2c(=O)n(-c3ccc(C(F)(F)F)cc3)[nH]c2c1
In: Between 1 and 2 , which one shows the larger IC50 value? Mark your answer with the label of the selected entry.
Out: 1
(1: 270 nM, 2: 170 nM)
